molecular target: human corticotropin-releasing factor 2α (CRF2 α receptor) (human), Q13324; assay: cell-based or functional assay
Sequence (Q13324 20-411): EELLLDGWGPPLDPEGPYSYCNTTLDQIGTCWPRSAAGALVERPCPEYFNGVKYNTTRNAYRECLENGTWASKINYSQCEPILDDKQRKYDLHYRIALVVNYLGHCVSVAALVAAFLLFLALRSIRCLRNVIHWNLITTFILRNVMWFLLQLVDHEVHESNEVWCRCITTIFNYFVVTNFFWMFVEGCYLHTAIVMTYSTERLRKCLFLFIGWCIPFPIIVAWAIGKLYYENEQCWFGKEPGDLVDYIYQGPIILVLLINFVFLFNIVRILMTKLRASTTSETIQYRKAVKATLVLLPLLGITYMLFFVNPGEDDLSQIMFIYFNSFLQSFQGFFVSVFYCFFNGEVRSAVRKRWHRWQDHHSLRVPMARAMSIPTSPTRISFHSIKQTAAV
Starred links: 1 amine or outer side, 2 acyl side, 3 side chain; linkers in the order of their positions; H or OH if unused. Groups on a side chain read outwards from the residue. No end group written: not given here. *: point of attachment. C18 diacid = O=C(O)CCCCCCCCCCCCCCCCC(=O)*; γGlu = O=C(O)[C@H](CCC(=O)[*:2])N[*:1]; AEEA = NCCOCCOCC(=O)O
Please go through the items and note down their EC50 [nM], 0% HSA.
Give bare numbers, in nM.

IVLSLDVPIKLK([AEEA-AEEA-γGlu-C18 diacid])QILLKQERQKKQRQQAETNKQILAQV-NH2 [SEQ ID NO: 113] : 0.1

Data request, read-out EC50 [nM], 0% HSA, for FTLSLDVPTKIKQILFKQQKQKKERQQAEKNKQLLEQI-NH2 (not fully specified (residue 12); printed as FTLSLDVPTKIK*QILFKQQKQKKERQQAEKNKQLLEQI-NH2) [SEQ ID NO: 58]
0.28
